tested.system: T1, IL-11 (Cat. 12225-HNCE, Sino Biological Inc.) (UniProt P20809 22-199, limits assumed)
T1 sequence (looked up): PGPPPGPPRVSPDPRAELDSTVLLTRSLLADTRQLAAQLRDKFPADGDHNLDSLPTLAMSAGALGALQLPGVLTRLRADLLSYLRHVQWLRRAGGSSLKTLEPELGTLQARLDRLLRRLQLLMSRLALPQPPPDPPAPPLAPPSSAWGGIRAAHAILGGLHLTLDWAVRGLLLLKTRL
assay.procedure: cell-based or functional assay
Each record here notes measured Blocking activity (IC50), STAT3-luc reporter.
measured.attribute: Blocking activity (IC50), STAT3-luc reporter (µg/mL)

{"columns": ["binder", "measured.value"],
 "data": [
  ["hz18A10-VH + hz18A10-VLm4 (antibody, V domains shown, Constant regions not restated for this antibody) VH: EVQLVQSGAEVKKPGASVKVSCKASGYTFTTYNMDWVRQAPGQGLEWMGTIYPGNGDTSYNQKFKGRVTMTRDTSTSTVYMELSSLRSEDTAVYYCARGDLYALDYWGQGTLVTVSS VL: DIQMTQSPSSLSASVGDRVTITCKASQFVSNDVAWYQQKPGKAPKLLIYSASNRYTGVPSRFSGSGSGTDFTFTISSLQPEDIATYYCQHDYSSPYTFGQGTKLEIK", 16.4],
  ["hz18A10-VHm3 + hz18A10-VLm9 (antibody, V domains shown, Constant regions not restated for this antibody) VH: EVQLVQSGAEVKKPGASVKVSCKASGYTFTTYDMDWVRQAPGQGLEWMGTIYPGNGDTSYNQKFKGRVTMTRDTSTSTVYMELSSLRSEDTAVYYCARGDLYALDYWGQGTLVTVSS VL: DIQMTQSPSSLSASVGDRVTITCKASQSVYSDVAWYQQKPGKAPKLLIYSASNRYTGVPSRFSGSGSGTDFTFTISSLQPEDIATYYCQHDYSSPYTFGQGTKLEIK", 0.248],
  ["hz18A10-VHm1 + hz18A10-VLm11 (antibody, V domains shown, Constant regions not restated for this antibody) VH: EVQLVQSGAEVKKPGASVKVSCKASGYTFTTYNMDWVRQAPGQGLEWMGTIYPGNGDTSYNQKFKGRVTMTRDTSTSTVYMELSSLRSEDTAVYYCARGDLHFLDYWGQGTLVTVSS VL: DIQMTQSPSSLSASVGDRVTITCKASQSVSNDVAWYQQKPGKAPKLLIYRASNRYTGVPSRFSGSGSGTDFTFTISSLQPEDIATYYCQHDYSSPYTFGQGTKLEIK", 7.4]
]}

Attribution: patent US20250197488A1
